Biological target: Human Recombinant Matriptase 2 (Homo sapiens, UniProt Q8IU80)
Construct: purchased Enzo Life Sciences (an in-house preparation was also used) ALX-201-752-1
Assay: Matriptase 2 fluorescence based inhibition assay, Method A (100 mM TRIS pH 9, 1 mg/mL BSA)
Assay type: biochemical
Conditions: 1 uM; Assay Used A; read-out: Mar-2 % inhibition at 1 uM
MEASURED ATTRIBUTE: inhibition at 1 µM

Log: Human Recombinant Matriptase 2 (Homo sapiens, UniProt Q8IU80), molecule N=C(N)c1ccc2cc(C(=O)Nc3cncc(F)c3)n(Cc3ccc(C(N)=O)cc3)c2c1 , inhibition at 1 µM = 0 to 25%

I looked up N=C(N)c1ccc2cc(C(=O)Nc3ccc(N4CCCC4)c(F)c3)n(Cc3ccc(C(N)=O)cc3)c2c1 and its inhibition at 1 µM for Human Recombinant Matriptase 2 (Homo sapiens, UniProt Q8IU80) was 0 to 25%

Form field, inhibition at 1 µM with Human Recombinant Matriptase 2 (Homo sapiens, UniProt Q8IU80), item N=C(N)c1ccc2cc(C(=O)Nc3cccc(N4CC[C@H](F)C4)c3)n(Cc3ccc(C(N)=O)cc3)c2c1 : 0 to 25%

---

Biological target: Human Recombinant Matriptase 2 (Homo sapiens)
Construct: purchased Enzo Life Sciences (an in-house preparation was also used) ALX-201-752-1
Sequence (Q8IU80 1-811): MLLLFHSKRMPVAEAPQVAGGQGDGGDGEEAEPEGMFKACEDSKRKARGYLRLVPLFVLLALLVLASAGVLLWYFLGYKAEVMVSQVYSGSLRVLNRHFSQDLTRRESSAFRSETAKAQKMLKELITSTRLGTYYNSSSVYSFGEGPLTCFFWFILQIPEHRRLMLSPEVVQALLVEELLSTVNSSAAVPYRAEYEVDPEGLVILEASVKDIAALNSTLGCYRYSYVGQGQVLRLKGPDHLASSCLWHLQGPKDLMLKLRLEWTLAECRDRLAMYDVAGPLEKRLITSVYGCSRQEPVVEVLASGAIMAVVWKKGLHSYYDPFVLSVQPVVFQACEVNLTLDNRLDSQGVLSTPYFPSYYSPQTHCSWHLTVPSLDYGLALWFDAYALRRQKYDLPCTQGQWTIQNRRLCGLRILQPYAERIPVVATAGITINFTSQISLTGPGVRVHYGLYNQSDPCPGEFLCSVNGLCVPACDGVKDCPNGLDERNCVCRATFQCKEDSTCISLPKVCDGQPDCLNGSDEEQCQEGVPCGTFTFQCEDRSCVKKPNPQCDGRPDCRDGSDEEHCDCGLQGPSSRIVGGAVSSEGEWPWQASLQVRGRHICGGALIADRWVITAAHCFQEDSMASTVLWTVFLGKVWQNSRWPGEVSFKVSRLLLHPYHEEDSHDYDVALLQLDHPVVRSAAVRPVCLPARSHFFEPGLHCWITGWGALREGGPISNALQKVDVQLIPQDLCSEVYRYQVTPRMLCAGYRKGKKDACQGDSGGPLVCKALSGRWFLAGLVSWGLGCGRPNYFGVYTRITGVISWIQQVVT
Experiment: Matriptase 2 fluorescence based inhibition assay, Method B (50 mM TRIS pH 7.5, 150 mM NaCl, 0.01% gelatin)
Format: biochemical
Settings: compound at 1 uM; Assay Used: B; read-out: Mar-2 % inhibition at 1 uM
Answer each item with its documented inhibition at 1 µM.

Sample N=C(N)c1ccc2cc(C(=O)N[C@H]3CC[C@H](N)CC3)n(Cc3cccc4sccc34)c2c1 ; inhibition at 1 µM observed: 50 to 75%

In plain terms, N=C(NN)c1ccc2cc(C(=O)N[C@H]3CC[C@H](N)CC3)n(Cc3cccc4ccccc34)c2c1 has a documented inhibition at 1 µM of 25 to 50%

inhibition at 1 µM recorded for this compound, COc1ccc2ccccc2c1Cn1c(C(=O)N[C@H]2CC[C@H](N)CC2)cc2ccc(C(=N)N)cc21 , is 0 to 25%

Form: compound = N=C(N)c1ccc2cc(C(=O)NC3CCNC[C@@H]3F)n(Cc3cccc4ccccc34)c2c1 (some centres unmarked) ; inhibition at 1 µM = 75 to 100%

The recorded inhibition at 1 µM for CNCCCOc1ccc2c(Cn3c(C(=O)O)cc4ccc(C(=N)N)cc43)cccc2c1 is 50 to 75%

The reported inhibition at 1 µM of the compound N=C(N)c1ccc2cc(C(=O)O)n(Cc3cccc4cc(O)ccc34)c2c1 was 75 to 100%

Summary for this compound, N=C(N)c1ccc2cc(-c3nnn[nH]3)n(Cc3cccc4ccccc34)c2c1 : inhibition at 1 µM is 75 to 100%

Reported inhibition at 1 µM ( N=C(N)c1ccc2cc(C(=O)N[C@H]3CC[C@H](N)CC3)n(Cc3cccc4sc(C(=O)O)cc34)c2c1 ) = 50 to 75%

Each recorded value in this set is attributed to patent US12428415B2.
